target: human MyD88 (human) (UniProt Q99836); test: P8 phage display panning on plate-immobilised MyD88, after round 4, NGS
recordedEndpoint: Population
Please report the result as a number followed by the unit.

| binder | Population |
| --- | --- |
| WDFASNMEQFWDRLYY | 2.83% |
| SAAYDDFWDRLIRMIE | 2.06% |
| GLSWGPYEWWMGLYDA | 0.76% |

Consider the binder shown here: "YASYDDNDYYWVTHVLLRHL" What is its recorded Population?
2.66%

Consider the binder shown here: "YLLLSVFQTIFARRTE" What is its recorded Population?
2.76%

Consider the binder shown here: "DPQDLDWFYERLVSLF" What is its recorded Population?
21.1%
